experiment: Stability of the analytes in beagle plasma QC samples under different storage conditions; assay type: physicochemical, beagle dog; conditions: medium QC in beagle plasma, 2 weeks at −80 °C, n = 6
ASSAY_ENDPOINT: Stability (% RE) Long-Term
One number for each entry, in % RE.

{"columns": ["MOLECULE", "ENDPOINT_UNIT", "RECORDED_MEASUREMENT"],
 "data": [
  ["COc1cc2c(cc1O)-c1cc3ccc(OC)c(OC)c3c[n+]1CC2", "% RE", 11.77],
  ["COc1cc2c(cc1O)CC[n+]1cc3c(OC)c(OC)ccc3cc1-2", "% RE", 10.30],
  ["CC(=O)O[C@H]1Cc2cc3c(cc2[C@H]2N(C)Cc4c(ccc5c4OCO5)[C@@]12C)OCO3", "% RE", 7.56],
  ["COc1ccc2cc3[n+](cc2c1O)CCc1cc2c(cc1-3)OCO2", "% RE", 3.75],
  ["COc1ccc(CCNC(=O)/C=C/c2ccc(O)c(O)c2)cc1", "% RE", 9.86]
]}

Each molecule below has a reported value. Please supply its Stability (% RE) Long-Term.
1. CN1Cc2c(ccc3c2OCO3)[C@@]2(C)[C@@H](O)Cc3cc4c(cc3[C@@H]12)OCO4
2. CN1C(=O)c2c(ccc3c2OCO3)C2(C)C(O)Cc3cc4c(cc3C12)OCO4 (stereo not shown)
3. C[n+]1cc2c3c(ccc2c2ccc4cc5c(cc4c21)OCO5)OCO3
4. COc1ccc2cc3[n+](cc2c1OC)CCc1cc2c(cc1-3)OCO2
5. COc1cc2c(cc1OC)-c1cc3ccc(OC)c(OC)c3c[n+]1CC2
6. CN1CCc2cc3c(cc2C(=O)Cc2ccc4c(c2C1)OCO4)OCO3
7. c1c2c(cc3c1OCO3)-c1cc3ccc4c(c3c[n+]1CC2)OCO4

A:
1: 6.81; 2: 5.35; 3: 7.46; 4: 7.72; 5: 10.77; 6: 7.93; 7: 6.73

Q: Name the recorded Stability (% RE) Long-Term of the item COc1cc2c(cc1OC)[C@@H]1Cc3ccc(OC)c(OC)c3CN1CC2 [Terahydropalmatine, tetrahydropalmatine] in your answer.
A: 11.88
